target.entity: 5-hydroxytryptamine receptor 2C (Homo sapiens)
assay.details: Positive allosteric modulation of human 5-HT2C receptor expressed in human HeLa-K1 cells assessed as potentiation of 5-HT-induced inositol monophosphate release at 10 uM after 20 mins by HTRF assay relative to control
Format: functional, cell-based
Activity overview
Hi! Could you send only the number? It should be in %, unit omitted.

Consider the compound shown here: `COc1ccc(Cn2cc(CNc3cccnc3)c3ccccc32)cc1` What is its recorded Activity? 6

***
Consider the compound shown here: `FC(F)(F)c1ccc(Cn2cc(CNc3cccnc3)c3ccccc32)cc1` What is its recorded Activity? 8

Consider the compound shown here: `Clc1ccccc1Cn1cc(CNc2cccnc2)c2ccccc21` What is its recorded Activity? 7

Consider the compound shown here: `Fc1cccc(Cn2cc(CNc3cccnc3)c3ccccc32)c1` What is its recorded Activity? 22

Consider the compound shown here: `N#Cc1cccc(Cn2cc(CNc3cccnc3)c3ccccc32)c1` What is its recorded Activity? 22

Consider the compound shown here: `c1ccc(Cn2cc(CNc3cncnc3)c3ccccc32)cc1` What is its recorded Activity? 20

Consider the compound shown here: `N#Cc1ccc(Cn2cc(CNc3cccnc3)c3ccccc32)cc1` What is its recorded Activity? 7

Consider the compound shown here: `Cc1ccncc1NCc1cn(Cc2ccccc2)c2ccccc12` What is its recorded Activity? 21

Consider the compound shown here: `Cc1ccc(Cn2cc(CNc3cccnc3)c3ccccc32)cc1` What is its recorded Activity? 24

Consider the compound shown here: `c1ccc(Cn2cc(CNc3ccccn3)c3ccccc32)cc1` What is its recorded Activity? 25

Consider the compound shown here: `Cc1cccc(Cn2cc(CNc3cccnc3)c3ccccc32)c1` What is its recorded Activity? 27

Consider the compound shown here: `Brc1ccc(Cn2cc(CNc3cccnc3)c3ccccc32)cc1` What is its recorded Activity? 6

Consider the compound shown here: `c1ccc(Cn2cc(CNc3ncccn3)c3ccccc32)cc1` What is its recorded Activity? 0

Consider the compound shown here: `c1cncc(Cn2cc(CNc3cccnc3)c3ccccc32)c1` What is its recorded Activity? 25

Consider the compound shown here: `c1ccc(Cn2cc(CNc3cccnc3)c3ccccc32)nc1` What is its recorded Activity? 0

Consider the compound shown here: `FC(F)(F)c1cccc(Cn2cc(CNc3cccnc3)c3ccccc32)c1` What is its recorded Activity? 0

Origin of the recorded values: ChEMBL document CHEMBL4028890
